test_system: T1, Snu13p (yeast, UniProt P39990 1-126)
T1 sequence: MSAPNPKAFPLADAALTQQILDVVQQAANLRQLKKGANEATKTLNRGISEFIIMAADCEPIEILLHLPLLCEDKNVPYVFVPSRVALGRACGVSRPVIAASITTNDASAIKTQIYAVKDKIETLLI
protocol_text: EMSA
measured_attribute: Kd
Kindly write the number and append the unit.

Looking for the measured Kd of Se1 (structured_RNA) RNA: GGACCUUUGUACCCCAGAUGAUGGCUUCACUGCUUGAUGGGUACAAAUGGCAG , can you help? 35 nM

# credit: paper PMC1874613
